# Tested on: iBMDM (immortalised mouse bone-marrow-derived macrophages), LPS-stimulated
# Measurement Notes: mitochondrial superoxide (MitoSOX fluorescence) fold increase over unstimulated control; higher = more LPS-induced mitochondrial ROS (less inhibition)
# Experimental Setup: inhibitor concentration: 500 nM; LPS: 100 ng/ml; time after LPS: 4 h
Property: mitochondrial superoxide
Give a plain numeric answer without units written out.

Consider the reported mitochondrial superoxide for these compounds:
>>> test_value("Cn1cnc2c(F)c(Nc3ccc(Br)cc3Cl)c(C(=O)NOCCO)cc21")
1.61
>>> test_value("CNC(=O)c1cccc(-c2ccc3c(N4CCOC[C@@H]4C)nc(N4CCOC[C@@H]4C)nc3n2)c1")
1.66
>>> test_value("Cc1c(NC(=O)OC[C@@H]2COCCN2)cn2ncnc(Nc3ccc4c(cnn4Cc4cccc(F)c4)c3)c12")
1.9

Briefly, mitochondrial superoxide measured for "Cc1ccc([N+](=O)[O-])cc1S(=O)(=O)N(C)/N=C/c1cnc2ccc(Br)cn12" : 1.21

Hello, the source for this data is the supplement of paper PMC7393113, in case you need it.
